- System: MOLT-4 leukemia
- Method description: NCI tumour cell line growth inhibition, 48 h
Parameter: TGI

Some compounds with recorded TGI:
# Compound, TGI
records = [
    ("COc1ccc(Nc2nc3c([nH]2)c(=O)n(C)c(=O)n3C)cc1", "> 10 µM"),
    ("O=C(CSc1n[nH]c(=O)[nH]c1=O)NNC(=O)c1cccc2nc3ccccc3nc12", "> 100 µM"),
    ("CCNC(=O)C1CCCN1C(=O)C(CCCN=C(N)N)NC(=O)C(CC(C)C)NC(=O)C(Cc1c[nH]c2ccccc12)NC(=O)C(Cc1ccc(O)cc1)NC(=O)C(CO)NC(=O)C(Cc1c[nH]c2ccccc12)NC(=O)C(Cc1cnc[nH]1)NC(=O)C1CCC(=O)N1 (configuration not stated)", "> 100 µM"),
]

Q: Fill in: TGI of COc1cc(I)c2c3c1OC1C34CCN(C)C(C2)C4=CC(I)C1(OC)OC (configuration not stated) is ___
Ans: 42.4 µM
